B1: CHIT1 (parent)
chain: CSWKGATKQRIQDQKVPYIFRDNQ

variants of: B1; test: protein stability index of a GFP-peptide fusion (GPS, HEK-293T) (PSI 1-6); higher = more stable; conditions: c terminus: a fixed tail appended;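 also: lentivirally expressed fusions sorted by FACS into six bins by GFP to DsRed ratio, PSI derived from sequencing read proportions per bin multiplied by bin number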
Quick rule: protein stability index of at least 3 means condition met, below that means condition not met.

Here are 4 variants together with their reported answers.
K15F: condition not met
D22N: condition not met
I11D: condition met
G5R: condition not met

Quick check, protein stability index >= 3? Q24G
condition not met

Okay, and T7M ?
condition not met

Field entry: Q9H
condition not met

Now consider K4M .
condition not met

Ok, now K15V
condition not met
